molecular target: UniProt Q9QZN9; assay: rat CB2 radioligand binding assay ([3H]CP-55,940 competition); set-up: expressed in transfected cells; host or cells: HEK293
Mark YES only for Ki values smaller than 0.01 µM; exact matches and larger values are NO.

Ask | Find out if reported Ki for CCCCc1cn(C(C)(C)C)s/c1=N\C(=O)[C@@]1(C)CC[C@@H](NC(=O)c2ccccc2)C1(C)C is less than 0.01 µM
Reply | NO

Ask | Find out if reported Ki for COc1ccc(Cl)cc1C(=O)/N=c1\sn(C(C)(C)C)cc1CC1OCCO1 is less than 0.01 µM
Reply | YES

Ask | Find out if reported Ki for CCCCc1cn(C(C)(C)C)s/c1=N\C(=O)[C@@]1(C)CC[C@@H](NC(N)=O)C1(C)C is less than 0.01 µM
Reply | NO

Ask | Find out if reported Ki for CC(C)(C)n1cc(Cc2ccco2)/c(=N/C(=O)c2cccc(C(F)(F)F)c2F)s1 is less than 0.01 µM
Reply | YES

Ask | Find out if reported Ki for COc1ccc(C#N)cc1C(=O)/N=c1\sn(C(C)(C)C)cc1CC(C)C is less than 0.01 µM
Reply | YES

Ask | Find out if reported Ki for CCCCc1cn(C(C)(C)C)s/c1=N\C(=O)C1(C)CCC(C(=O)N(C)C)C1(C)C (centres unmarked) is less than 0.01 µM
Reply | NO

Ask | Find out if reported Ki for CCCCc1cn(C(C)(C)C)s/c1=N\C(=O)[C@@]1(C)CC[C@@H](C(=O)OCC)C1(C)C is less than 0.01 µM
Reply | YES

Ask | Find out if reported Ki for CCCCc1cn(C(C)(C)C)s/c1=N\C(=O)[C@]1(C)CC[C@H](C(=O)NC[C@@H]2CCCO2)C1(C)C is less than 0.01 µM
Reply | NO

Ask | Find out if reported Ki for CCCCc1cn(C(C)(C)C)s/c1=N\C(=O)[C@@H]1CC[C@](C)(C(=O)NCC)C1(C)C is less than 0.01 µM
Reply | NO

Ask | Find out if reported Ki for COc1ccc(C#N)cc1C(=O)/N=c1\sn(C(C)(C)C)cc1Cc1cccs1 is less than 0.01 µM
Reply | YES

Ask | Find out if reported Ki for CCCCc1cn(C(C)(C)C)s/c1=N\C(=O)[C@]1(C)CC[C@H](C(=O)NCCCO)C1(C)C is less than 0.01 µM
Reply | NO

Ask | Find out if reported Ki for CCCCc1cn(C(C)(C)C)s/c1=N\C(=O)C1(C)CCC(C(=O)O)C1(C)C (centres unmarked) is less than 0.01 µM
Reply | NO

Ask | Find out if reported Ki for COc1ccc(C(F)(F)F)cc1C(=O)/N=c1\sn(C(C)(C)C)cc1CCCC(C)(C)O is less than 0.01 µM
Reply | YES

Ask | Find out if reported Ki for CCCCc1c(C)n(C)s/c1=N\C(=O)C12CC3CC(CC1C3)C2 is less than 0.01 µM
Reply | YES

Ask | Find out if reported Ki for CCCCc1cn(C(C)(C)C)s/c1=N\C(=O)c1cc(F)ccc1OC is less than 0.01 µM
Reply | YES

Ask | Find out if reported Ki for COc1ccc(Cl)cc1C(=O)/N=c1\sn(C(C)(C)C)cc1CCCCF is less than 0.01 µM
Reply | YES

Ask | Find out if reported Ki for CCCCc1cn(C(C)(C)C)s/c1=N\C(=O)[C@]1(C)CC[C@H](C(=O)N2CCC2)C1(C)C is less than 0.01 µM
Reply | NO

Ask | Find out if reported Ki for CCCCc1cn(C(C)(C)C)s/c1=N\C(=O)[C@]1(C)CC[C@H](NC(=O)OC)C1(C)C is less than 0.01 µM
Reply | NO

Ask | Find out if reported Ki for CCCCc1cn(C(C)(C)C)s/c1=N\C(=O)C1(C)CCC(C(=O)OC)C1(C)C (racemic) is less than 0.01 µM
Reply | YES

Ask | Find out if reported Ki for CCCCc1cn(C(C)(C)C)s/c1=N\C(=O)[C@H]1CC[C@@](C)(C(N)=O)C1(C)C is less than 0.01 µM
Reply | YES

Ask | Find out if reported Ki for CCCCc1cn(C(C)(C)C)s/c1=N\C(=O)[C@]1(C)CC[C@H](C(=O)O)C1(C)C is less than 0.01 µM
Reply | NO

Ask | Find out if reported Ki for CCCCc1cn(C(C)(C)C)s/c1=N\C(=O)[C@]1(C)CC[C@H](C(=O)N2CC(F)(F)C2)C1(C)C is less than 0.01 µM
Reply | NO

Ask | Find out if reported Ki for COc1ccc(C(F)(F)F)cc1C(=O)/N=c1\sn(C(C)(C)C)cc1Cc1ccco1 is less than 0.01 µM
Reply | YES

Ask | Find out if reported Ki for COC(=O)CCCc1cn(C(C)(C)C)s/c1=N\C(=O)c1cc(Cl)ccc1OC is less than 0.01 µM
Reply | YES

Ask | Find out if reported Ki for CCCCc1cn(C(C)(C)C)s/c1=N\C(=O)c1cc(C(C)(F)F)ccc1OC is less than 0.01 µM
Reply | YES

Ask | Find out if reported Ki for CC(C)(C)n1cc(CCCC#N)/c(=N/C(=O)c2cc(Cl)ccc2OCC(N)=O)s1 is less than 0.01 µM
Reply | NO

Ask | Find out if reported Ki for CCCCc1cn(C(C)(C)C)s/c1=N\C(=O)[C@@H]1CC[C@](C)(C(=O)NC)C1(C)C is less than 0.01 µM
Reply | YES

Ask | Find out if reported Ki for CCCCc1cn(C(C)(C)C)s/c1=N\C(=O)C12CCC(C(=O)OC)(CC1)CC2 is less than 0.01 µM
Reply | NO

Ask | Find out if reported Ki for CCCCc1cn(C(C)(C)C)s/c1=N\C(=O)c1cc(S(C)(=O)=O)ccc1OC is less than 0.01 µM
Reply | NO

Ask | Find out if reported Ki for CCCCc1cn(C(C)(C)C)s/c1=N\C(=O)[C@]1(C)CC[C@H](C(=O)OCC)C1(C)C is less than 0.01 µM
Reply | YES

Ask | Find out if reported Ki for CCCCc1cn(C(C)(C)C)s/c1=N\C(=O)c1cc(C(F)(F)F)ccc1OC[C@@H]1CCCN1C is less than 0.01 µM
Reply | NO

Ask | Find out if reported Ki for CON=CCCc1cn(C(C)(C)C)s/c1=N\C(=O)c1cc(Cl)ccc1OC is less than 0.01 µM
Reply | NO

====

I'd be grateful if you could share measured pKi for these entries.
biological target: rat CB2 (Rattus norvegicus); assay: rat CB2 radioligand binding assay ([3H]CP-55,940 competition); parameters: expressed in transfected cells; host or cells: HEK293
pKi here is simply -log10 of the concentration when that concentration is written in mol/L.

Briefly, pKi measured for COC(=O)CCCc1cn(C(C)(C)C)s/c1=N\C(=O)c1cc(C#N)ccc1OC : 7.77

Briefly, pKi measured for CCCCc1cn(C(C)(C)C)s/c1=N\C(=O)c1cc(Cl)ccc1OCCF : 8.70

Briefly, pKi measured for CCCCc1cn(C(C)(C)C)s/c1=N\S(=O)(=O)c1cccc(Cl)c1Cl : 7.96

Briefly, pKi measured for CCCCc1cn(C(C)(C)C)s/c1=N\C(=O)c1cc(OC)ccc1OC : 8.20

Briefly, pKi measured for CCCCc1cn(C(C)(C)C)s/c1=N\C(=O)c1cc(Cl)ccc1OCC#N : 8.68

Briefly, pKi measured for COc1ccc(Cl)cc1C(=O)/N=c1\sn(C(C)(C)C)cc1C1CCOCC1 : 7.59

Briefly, pKi measured for CCCCc1cn(C(C)(C)C)s/c1=N\C(=O)C1C(C)(C)C1(C)C : 9.28

Briefly, pKi measured for COc1ccc(Cl)cc1C(=O)/N=c1\sn(C(C)(C)C)cc1CCCC(C)(F)F : 9.19

Briefly, pKi measured for COc1ccc(C(F)(F)F)cc1C(=O)/N=c1\sn(C(C)(C)C)cc1CCCCF : 9.82

====

target: rat CB2 (Rattus norvegicus, UniProt Q9QZN9); experiment: rat CB2 radioligand binding assay ([3H]CP-55,940 competition); parameters: expressed in transfected cells; host or cells: HEK293
Sequence (Q9QZN9 whole entry): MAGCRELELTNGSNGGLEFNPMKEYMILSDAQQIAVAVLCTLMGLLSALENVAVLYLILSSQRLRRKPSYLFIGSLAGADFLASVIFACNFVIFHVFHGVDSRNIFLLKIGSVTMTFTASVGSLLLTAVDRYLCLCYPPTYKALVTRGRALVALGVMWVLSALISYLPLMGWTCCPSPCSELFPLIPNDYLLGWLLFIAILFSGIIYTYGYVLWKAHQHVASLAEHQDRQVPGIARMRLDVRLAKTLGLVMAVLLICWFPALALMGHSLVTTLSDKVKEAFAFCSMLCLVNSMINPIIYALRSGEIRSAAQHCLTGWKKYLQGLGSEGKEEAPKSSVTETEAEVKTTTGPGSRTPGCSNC
property: Ki (nM)
Quick reminder: number only, in nM, skip the unit.

Briefly, Ki measured for CCCCc1cn(C(C)(C)C)s/c1=N\S(=O)(=O)c1cccc2ccccc12 : 45

Briefly, Ki measured for CCCCc1cn(C(C)(C)C)s/c1=N\C(=O)[C@H]1CC[C@@](C)(C(=O)N(C)C)C1(C)C : 40

Briefly, Ki measured for CCCCc1cn(C(C)(C)C)s/c1=N\C(=O)c1cc(C(F)(F)F)ccc1ONC(C)(C)C : 1

Briefly, Ki measured for CCCCc1cn(C(C)(C)C)s/c1=N\C(=O)[C@]1(C)CC[C@H](C(=O)NC2CC2)C1(C)C : 11

Briefly, Ki measured for COc1ccc(Cl)cc1C(=O)/N=c1\sn(C(C)(C)C)cc1COCC(F)F : 12

Briefly, Ki measured for COc1ccc(Cl)cc1C(=O)/N=c1\sn(C(C)(C)C)c(C)c1NC(=O)OC(C)(C)C : 47

Briefly, Ki measured for CCCCc1cn(C(C)(C)C)s/c1=N\C(=O)[C@@]1(C)CC[C@@H](C(=O)N2CCC2)C1(C)C : 70

Briefly, Ki measured for COc1ccc(Cl)cc1C(=O)/N=c1\sn(C(C)(C)C)cc1CC1CC(C)=NO1 (centres unmarked) : 8.8

Briefly, Ki measured for CCCCc1cn(C(C)(C)C)s/c1=N\C(=O)c1cc(C(=O)OC)ccc1OC : 2.5

Briefly, Ki measured for C#CCNC(=O)[C@H]1CC[C@@](C)(C(=O)/N=c2\sn(C(C)(C)C)cc2CCCC)C1(C)C : 18

Briefly, Ki measured for CCCCc1cn(C(C)(C)C)s/c1=N\C(=O)c1cc(Cl)ccc1OC : 1.5

Briefly, Ki measured for CCCCc1cn(C(C)(C)C)s/c1=N\C(=O)c1cc(I)ccc1OC : 0.51

Briefly, Ki measured for CCCCc1cn(C(C)(C)C)s/c1=N\C(=O)c1cc(C(F)(F)F)ccc1OCC1CCCCN1C (centres unmarked) : 28.8

Briefly, Ki measured for COc1ccc(Cl)cc1C(=O)/N=c1\sn(C(C)(C)C)cc1C(O)C(C)C (centres unmarked) : 2.7

Briefly, Ki measured for CCCCc1cn(C(C)(C)C)s/c1=N\C(=O)C1=CC(=O)CC(C)(C)O1 : 1

Briefly, Ki measured for CC(C)(C)n1cc(CCCC#N)/c(=N/C(=O)c2cc(Cl)ccc2OCC(F)(F)F)s1 : 1.1

Briefly, Ki measured for COc1ccc(Cl)cc1C(=O)/N=c1\sn(C(C)(C)C)cc1C(O)C1CCC1 (centres unmarked) : 1.2
